- Tested on: ACHN
- protocol: NCI tumour cell line growth inhibition, 48 h
Active and inactive are the calls of the source. Cut-off read from the data, not from the text of the source: active = GI50 up to about 1.1 µM and inactive = higher.
Classes to choose from: active, inactive

[Q] What did this assay record as the result for `COc1ccc(-n2c(N)c(C#N)c(C#N)c2-c2ccco2)cc1` ?
[A] inactive

[Q] Try this compound next: `Cc1cc(=O)oc2cc(OCc3c(F)cccc3Cl)ccc12`
[A] inactive

[Q] How about this compound: `O=C(O)c1ccc2[nH]c(=O)oc2c1`
[A] inactive

[Q] Ok, now `O=C(c1ccccc1)c1ccc2c(c1)NC(=O)c1ccccc1SSc1ccccc1C(=O)N2`
[A] inactive

[Q] // repeat for `NC(=O)Nc1c([N+](=O)[O-])cc(C(F)(F)F)cc1[N+](=O)[O-]` and report
[A] inactive

[Q] Quick one: `CCN1/C(=C/C#C/C(C)=C\c2sc3ccccc3[n+]2CC)Sc2ccccc21`
[A] inactive
